System: MS2 coat protein
method summary: apparent KD of MS2 coat protein; designed switch direction (-1 OFF switch, 1 ON switch): -1; higher = weaker reporter binding
measurement context: Eterna round: R95; input ligand: none
Would you please tag the item 1 when its apparent KD of MS2 coat protein is 50 nM or above, and 0 when it is below?

q: Please tell me: is the sequence AGGGAUAAAGGAUAUACAUGAGGAUCACCCAUGUUGAGGAAAGUGAGAGGUGGCGAUAGUAGAAGGUUAGGUAG [JR_Exclu3_Sub082] (puzzle: Exclusion 3) at or over 50 nM in terms of apparent KD of MS2 coat protein?
a: 1

q: Please tell me: is the sequence AUGGACGCAGGAUAUACAUGAGGAUCACCCAUGUGAGGUUGGUAAGUAGGAAGUGAAGGUAGAAGGGCGAGAGA [JR_Exclu3_Sub097] (puzzle: Exclusion 3) at or over 50 nM in terms of apparent KD of MS2 coat protein?
a: 1

q: Please tell me: is the sequence AGAUGGCGAGGAUAUACAUGAGGAUCACCCAUGUGAAGAGAAAGAGUGAGGAAGAAAAGUAGAAGGCGCUGUCA [Mat - Exclusion 3 - Mod of Salish D29] (puzzle: Exclusion 3) at or over 50 nM in terms of apparent KD of MS2 coat protein?
a: 1

q: Please tell me: is the sequence AGUACUAUGCGUGCUGACAUGCGUAGUGCAGCAGGUGUAACAUGAGGAUCACCCAUGUCCUCAUUUGCUCGUCUUAU [Mat - Sensor v3 - Turn-off var 2 - D12] (puzzle: Sensor v3, turn-off variant 2) at or over 50 nM in terms of apparent KD of MS2 coat protein?
a: 1

q: Please tell me: is the sequence CCGCAAAUGAAGGAUAUCGUAUCGGAUACGAUACGAGAAGGUCGAACAUGAGGAUCACCCAUGUGUCCUAGCGG [Fiskers Ex 6 - 41] (puzzle: Exclusion 6) at or over 50 nM in terms of apparent KD of MS2 coat protein?
a: 0

q: Please tell me: is the sequence AAGAAACAUGAGGAUCACCCAUGUGAGGAUAUGAUGAAGAAAAGAAAAGAAAGAAGACUCAGAAGGCACAAAGG [salish99-ex1_r3_070] (puzzle: Exclusion 1) at or over 50 nM in terms of apparent KD of MS2 coat protein?
a: 0

q: Please tell me: is the sequence CUCUACGGAGGAUAUACAACCGGUUAUCCCUGUGGAACGCCACAUGAGGAUCACCCAUGUAGAAGGCCGAGAAA [Ceones] (puzzle: Exclusion 2) at or over 50 nM in terms of apparent KD of MS2 coat protein?
a: 1

q: Please tell me: is the sequence UUACAAUGUCGCUUAUAAGCUUUUUGCUCGUCUUAUAUUACAUGAGGAUCACCCAUGUAGAUCAUGUGGCGUGACCU [JL ViennaUCT Maridi mod 8] (puzzle: Sensor v3, turn-off variant 2) at or over 50 nM in terms of apparent KD of MS2 coat protein?
a: 1

q: Please tell me: is the sequence AAUAGCAAGUAAGAUCCUAACAUGAGGAUCACCCAUGUGCUCGUCUUGUAAAGUACUAUCACGAAAGUGAUAGUACA [Sensor 3, v1 - 50] (puzzle: Sensor v3, turn-off variant 1) at or over 50 nM in terms of apparent KD of MS2 coat protein?
a: 1

q: Please tell me: is the sequence UGUACGAUGCGUGCUGACAUGCGUCGUGCAGCAGGUGAUACAUGAGGAUCACCCAUGUCCUCAUUUGCUCGUCUUAU [Mat - Sensor v3 - Turn-off var 2 - D23] (puzzle: Sensor v3, turn-off variant 2) at or over 50 nM in terms of apparent KD of MS2 coat protein?
a: 1

q: Please tell me: is the sequence CGGAGCAGAGGGAGAUCCAACAUGAGGAUCACCCAUGUCUCAUAAGCUUUUUGCUCAUCUUAUUGUACCUUGGUGCU [JL ViennaUCT Edcesobi mod 5] (puzzle: Sensor v3, turn-off variant 1) at or over 50 nM in terms of apparent KD of MS2 coat protein?
a: 0

q: Please tell me: is the sequence CUUCACCCACCAGAGCACACCCACAUACCUGCUCAGGUGACAUGAGGAUCACCCAUGUUUUUUGCCCGUCUUAUCUU [Tilevere] (puzzle: Sensor v3, turn-off variant 2) at or over 50 nM in terms of apparent KD of MS2 coat protein?
a: 0

q: Please tell me: is the sequence AUAAUUUAAGUCAGGAUAUACCUAUGGAAACAUAGGUAGAAGGGACAUGAGGAUCACCCAUGUUUAUAUACAUA [Fiskers BMX 4 - 4] (puzzle: Brourd's mod of Exclusion 4) at or over 50 nM in terms of apparent KD of MS2 coat protein?
a: 0

q: Please tell me: is the sequence GAUAGAGAGCAGGAUAUCUUGGAUAAGUGUUGUAGAGAAGGGCUCACAUGAGGAUCACCCAUGUGGUCCUAGAU [JL Dibiri mod 09] (puzzle: Exclusion 6) at or over 50 nM in terms of apparent KD of MS2 coat protein?
a: 0
